System: HUVEC
procedureText: Metabolic activity assessment (cytotoxicity), HUVEC
Format: cell-based
testParameters: Homo sapiens, 72 h, metabolic activity after 72 h treatment
For each entry below, report its pIC50 value.
API: returns pIC50 as number; meaning -log10 of concentration in mol/L.

Request: Please report the recorded pIC50 for COc1ccc2nccc(CCN3CCC(NCc4ccc(OC(F)F)c(OC)c4)CC3)c2n1 .
Response: 4.70

Request: Which pIC50 is listed for COc1ccc2nccc(CCN3CCC(NCc4ccc(OC(F)F)c(O)c4)CC3)c2n1 ?
Response: 4.53

###

I'd be grateful if you could share measured MIC for these entries.
Test system: E. coli (QA-11.7)
procedureText: MIC broth microdilution, E. coli QA-11.7
Format: cell-based
testParameters: Escherichia coli, 20 h; multi-resistant isolate (ampicillin, azithromycin, cefotaxime, ertapenem, imipenem and others); read-out: MIC E. coli (QA-11.7)
Protocol: Antimicrobial testing was carried out by the broth microdilution method in 96-well plate format following the Clinical and Laboratory Standards Institute (CLSI) guidelines and European Committee on Antimicrobial Susceptibility Testing (EUCAST) recommendations. […] After incubation the minimal inhibitory concentration (MIC) values were determined by visual inspection as the lowest dilution of compounds showing no turbidity. […]
Give the number; µg/mL is assumed, so skip it.

Request: For the compound shown here, C=CCn1cc(CNC2CCN(CCc3ccnc4ccc(OC)nc34)CC2)cn1 [Compound 10] , give the reported MIC.
Response: 4

Request: Query: MIC; subject: COc1ccc2nccc(CCN3CCC(NCc4ccc(F)cc4)CC3)c2n1 [Compound 12]
Response: 8

Request: May I ask what MIC has been recorded for COc1ccc2nccc(CCN3CCC(NCc4ccc(C(N)=O)cc4)CC3)c2n1 [Compound 17] ?
Response: 128

Request: Item COc1ccc2nccc(CCN3CCC(NCc4ccc(CO)cc4)CC3)c2n1 [Compound 16] has what recorded MIC?
Response: 32

Request: // query MIC value for entry COc1ccc2nccc(CCN3CCC(NCc4ccc(N(C)C)cc4)CC3)c2n1 [Compound 18]
Response: 4

###

Test system: A. baumannii 8C6 (GES-14)
procedureText: MIC broth microdilution, A. baumannii
Assay type: cell-based
testParameters: Acinetobacter baumannii; read-out: MIC A. baumannii 8C6 (GES-14)
# label = rule met if MIC < 4 µg/mL else rule not met

Request: Is MIC strictly under 4 µg/mL for the entry COc1ccc2nccc(CCN3CCC(NCc4ccc(N(C)C)cc4)CC3)c2n1 [Compound 18] ?
Response: rule not met

Request: In the record for COc1ccc2nccc(CCN3CCC(NCc4ccc(F)cc4)CC3)c2n1 [Compound 12] , is MIC less than 4 µg/mL?
Response: rule not met

Request: Confirm or reject: MIC of COc1ccc2nccc(CCN3CCC(NCc4ccc(OC(F)F)c(OC)c4)CC3)c2n1 [Compound 19] lies strictly below 4 µg/mL
Response: rule not met

Request: API: query returns whether the compound falls strictly under 4 µg/mL in MIC. Query: C=CCn1cc(CNC2CCN(CCc3ccnc4ccc(OC)nc34)CC2)cn1 [Compound 10]
Response: rule not met

Request: Is the reported MIC for COc1ccc2nccc(CCN3CCC(NCc4cnn(-c5ccccc5)n4)CC3)c2n1 [Compound 8] strictly below 4 µg/mL?
Response: rule not met

Request: Given the entry COc1ccc2nccc(CCN3CCC(NCc4nc5ccccc5n4C)CC3)c2n1 [Compound 3] , would its reported MIC be below 4 µg/mL?
Response: rule not met

Request: Report whether reported MIC is lower than 4 µg/mL (strictly) for COc1ccc2nccc(CCN3CCC(NCc4ccc(CO)cc4)CC3)c2n1 [Compound 16]
Response: rule not met

Request: Check if MIC falls below 4 µg/mL for COc1ccc2nccc(CCN3CCC(NCc4cnn(C(C)C)c4)CC3)c2n1 [Compound 9] .
Response: rule met

Request: Say whether its MIC is strictly beneath 4 µg/mL. Entry: COc1ccc2nccc(CCN3CCC(NCc4ccc(I)cc4)CC3)c2n1 [Compound 15]
Response: rule met

Request: Please state whether MIC is below 4 µg/mL for COc1ccc2nccc(CCN3CCC(NCc4ccc(C(F)(F)F)nc4)CC3)c2n1 [Compound 21]
Response: rule not met

Request: Input COc1ccc2nccc(CCN3CCC(NCc4ccc(C(N)=O)cc4)CC3)c2n1 [Compound 17] ; condition: MIC strictly below 4 µg/mL. Does it hold?
Response: rule not met

Request: MIC under 4 µg/mL? Item: COc1ccc2nccc(CCN3CCC(NCc4cnn(-c5ccc(F)cc5)c4)CC3)c2n1 [Compound 4]
Response: rule not met

Request: Report whether reported MIC is lower than 4 µg/mL (strictly) for COc1ccc2nccc(CCN3CCC(NCc4ccc(Br)cc4)CC3)c2n1 [Compound 14]
Response: rule met

Request: Please state whether MIC is below 4 µg/mL for COc1ccc2nccc(CCN3CCC(NCc4ccccc4)CC3)c2n1 [Compound 11]
Response: rule not met

###

Test system: HepG2
procedureText: Metabolic activity assessment (cytotoxicity), HepG2
Type: cell-based
testParameters: Homo sapiens, HepG2, metabolic activity after 72 h treatment
Protocol: Cells of the HepG2 line (ATCC® HB-8065™) and HUVEC (ATCC® CRL-1730™) were cultured in Dulbecco’s Modified Eagle Medium (DMEM; Sigma-Aldrich, St. Louis, MO, USA) supplemented with 10% heat-deactivated FBS (Gibco, Grand Island, NE, USA), 2 mM L-glutamine, 100 U/mL penicillin, 100 μg/mL streptomycin (all from Sigma-Aldrich, St. Louis, MO, USA) in a humidified chamber at 37 °C and 5% CO2. […] IC50 values were calculated by a non-linear regression model using Graph Pad Prism 7 software.
observedProperty: pIC50
pIC50 field: float, defined as -log10 of concentration (mol/L).

Request: Look up pIC50: COc1ccc2nccc(CCN3CCC(NCc4cnn(-c5ccccc5)n4)CC3)c2n1
Response: 4.77

Request: Query: pIC50; subject: COc1ccc2nccc(CCN3CCC(NCc4cnn(-c5ccc(F)cc5)c4)CC3)c2n1
Response: 5.33

Request: State the recorded pIC50 for this entry: COc1ccc2nccc(CCN3CCC(NCc4cnn(-c5ccccc5)c4)CC3)c2n1
Response: 5.20

Request: Which pIC50 value is on record for COc1ccc(CNC2CCN(CCc3ccnc4ccc(OC)nc34)CC2)cn1 ?
Response: 4.49

###

systemUnderTest: E. coli DNA gyrase (Escherichia coli, UniProt P0AES4)
Construct: purchased Inspiralis (Norwich, UK)
procedureText: Gyrase Supercoiling High Throughput Plate assay, E. coli
Format: biochemical
testParameters: LE = (1.37/HA) × pIC50
Description: A Gyrase Supercoiling High Throughput Plate assay kit, purchased from Inspiralis (Norwich. UK) was used to determine IC50 values of compounds on S. aureus and E. coli. […] Biotinylated oligonucleotide in wash buffer was immobilized onto the wells, and the excess oligonucleotide was washed off with wash buffer and ultrapure water. […]
observedProperty: LE DNA Gyrase E. coli
I'd appreciate a reply containing only the number, no unit.

Request: For the compound COc1ccc2nccc(CCN3CCC(NCc4cnn(-c5ccccc5)c4)CC3)c2n1 , what LE DNA Gyrase E. coli is on record?
Response: 0.23

Request: What value of LE DNA Gyrase E. coli has been reported for the following compound? COc1ccc2nccc(CCN3CCC(NCc4ccccc4)CC3)c2n1
Response: 0.21

Request: Can you share its LE DNA Gyrase E. coli? I mean this compound: COc1ccc2nccc(CCN3CCC(NCc4ccc(OC(F)F)c(OC)c4)CC3)c2n1
Response: 0.22

Request: Consider the compound COc1ccc2nccc(CCN3CCC(NCc4cnn(C(C)C)c4)CC3)c2n1 and give its measured LE DNA Gyrase E. coli.
Response: 0.25

Request: Item C=CCn1cc(CNC2CCN(CCc3ccnc4ccc(OC)nc34)CC2)cn1 has what recorded LE DNA Gyrase E. coli?
Response: 0.22

Request: Would you kindly share the measured LE DNA Gyrase E. coli for COc1ccc2nccc(CCN3CCC(NCc4ccc(N(C)C)cc4)CC3)c2n1 ?
Response: 0.22

Request: # input compound: COc1ccc2nccc(CCN3CCC(NCc4ccc(CO)cc4)CC3)c2n1 ; wanted: its LE DNA Gyrase E. coli
Response: 0.19

Request: For the compound COc1ccc2nccc(CCN3CCC(NCc4ccc(C(F)(F)F)nc4)CC3)c2n1 , what LE DNA Gyrase E. coli is on record?
Response: 0.22

Request: What value of LE DNA Gyrase E. coli has been reported for the following compound? COc1ccc2nccc(CCN3CCC(NCc4cnn(-c5ccc(F)cc5)c4)CC3)c2n1
Response: 0.20

Request: // returns reported LE DNA Gyrase E. coli for input COc1ccc2nccc(CCN3CCC(NCc4ccc(F)cc4)CC3)c2n1
Response: 0.23

Request: Which value of LE DNA Gyrase E. coli has been reported for COc1ccc(CNC2CCN(CCc3ccnc4ccc(OC)nc34)CC2)cn1 in the records?
Response: 0.23

Request: Record request: LE DNA Gyrase E. coli value, item COc1ccc2nccc(CCN3CCC(NCc4cnn(-c5ccccc5)n4)CC3)c2n1
Response: 0.21

Request: Please look up its LE DNA Gyrase E. coli: COc1ccc2nccc(CCN3CCC(NCc4ccc(OC(F)F)c(O)c4)CC3)c2n1
Response: 0.22
